Data credit: patent US20250034266A1

- subject.of.test: T1, human CCR8 (human, UniProt P51685 1-355)
- T1 construct: whole, on cells; In the β-arrestin assay CCR8 is fused to the ProLink (PK) tag; also called hCCR8; CHO-K1-human CCR8
- experimental.details: FACS on CHO-K1-human CCR8 cells
measured.metric: pEC50
Please express pEC50 as -log10 of the molar concentration.

// below: answered binders
binder	pEC50
164G10D6 (antibody, V domains shown, Murine hybridoma antibody; also called 164G10C6) VH: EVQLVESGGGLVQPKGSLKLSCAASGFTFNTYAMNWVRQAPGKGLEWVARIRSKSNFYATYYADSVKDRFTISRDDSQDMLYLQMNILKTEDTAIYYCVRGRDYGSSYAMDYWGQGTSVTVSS VL: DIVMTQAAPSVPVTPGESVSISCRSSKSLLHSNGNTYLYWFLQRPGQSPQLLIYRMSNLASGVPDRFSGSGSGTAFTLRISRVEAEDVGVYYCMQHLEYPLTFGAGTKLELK	9.19
149F2C10 (antibody, V domains shown, also called 1491F2C0) VH: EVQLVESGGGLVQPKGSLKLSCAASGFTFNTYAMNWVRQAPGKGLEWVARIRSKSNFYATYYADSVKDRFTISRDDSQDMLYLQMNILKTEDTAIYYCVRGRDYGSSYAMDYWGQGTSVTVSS VL: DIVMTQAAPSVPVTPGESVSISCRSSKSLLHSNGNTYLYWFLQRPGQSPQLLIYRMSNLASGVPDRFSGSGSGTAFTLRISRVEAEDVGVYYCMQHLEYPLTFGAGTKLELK	9.06

Here's the next entry for you.
Determine from records and report pEC50 for 273H2G6 (antibody, V domains shown, Murine hybridoma antibody) VH: DVQLQESGPGLVKPSQSLSLTCSVTGYSITSGYYWNWIRQFPGNKLEWMGYISYDGSNNYNPSLKNRISITRDISKNQFFLKLNSVTTEDTATYYCARQVGLRRGAMDYWGQGTSVTVSS VL: DIQMTQSSSYLSVSLGGRVTITCKASDHINNWLAWYQQKPGNAPRLLISGSTSLKAGVASRFSGSGSGKDYTLSITSLQTEDVATYYCQQYWSIPYTFGGGTKLEIK
9.86
